This section presents variants with their documented protein stability index values.
B1: IMPA1 (parent)
chain: FIGEESVAAGEKSILTDNPTWIID

Variants of: B1
protocol notes: protein stability index of a GFP-peptide fusion (GPS, HEK-293T) (PSI 1-6); higher = more stable;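 also: lentivirally expressed fusions sorted by FACS into six bins by GFP to DsRed ratio, PSI derived from sequencing read proportions per bin multiplied by bin number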
reported conditions: c terminus: a fixed tail appended
Respond with the number and no other words.

mutation spec	protein stability index
I22G	3.11
K12S	2.12
E11M	2.01
T16F	1.66
T16C	3.16
I22V	2.31

Input line: // lookup protein stability index for G10K
Output line: 2.01

Input line: Recorded protein stability index for S6N , please?
Output line: 2.25

Input line: Item I2H has what recorded protein stability index?
Output line: 2.59

Input line: Value lookup for protein stability index; key = L15R
Output line: 2.17

Input line: If you can, please state the reported protein stability index value of W21F .
Output line: 3.89

Input line: Sample S6H — what was its protein stability index?
Output line: 2.29

Input line: Can you share its protein stability index? I mean this variant: E4M
Output line: 2.35

Input line: Param item = G3K ; retrieve measured protein stability index.
Output line: 2.17

Input line: Quick one: protein stability index of G10M ?
Output line: 2.2
